System: Pseudotyped HCV GT1b particles (HCVpp), entry into Huh7-high CD81 cells
Test: microbe, parasite or virus in culture
Type: cell-based, HCV GT1b Con1 strain
Conditions: Hepatitis C virus, GT1B, 72 h, read-out: HCVpp GT-1b (EC50, μM)
Response field label: string, one of 1.0 (EC50 strictly below 0.2 µM) or 0.0.

N#Cc1ccc(-c2c(F)cc(Nc3nc(N)n[nH]3)cc2C(F)(F)F)cc1 | 0.0
Nc1nc(Nc2cc(Cl)c(-c3ccc(OCCCN4CCOCC4)cc3)c(Cl)c2)n[nH]1 | 0.0
CNC(=O)c1ccc(-c2c(Cl)cc(Nc3n[nH]c(N)n3)cc2C(F)(F)F)cc1 | 1.0

Field: next compound
Prompt: Does the reported EC50 of the following compound sit strictly below 0.2 µM? CS(=O)(=O)N1CCOc2ccc(-c3c(Cl)cc(Nc4n[nH]c(N)n4)cc3C(F)(F)F)cc21
Completion: 0.0

###

Test system: Pseudotyped HCV GT1b particles (HCVpp), entry into Huh7-high CD81 cells
Test: microbe, parasite or virus in culture
Format: cell-based, HCV GT1b Con1 strain
Settings: Hepatitis C virus, GT1B, 72 h, read-out: HCVpp GT-1b (EC50, μM)
Counter-ions that a name gives are not always drawn.
Response field label: string, one of condition met (EC50 strictly below 0.2 µM) or condition not met.

Previously resolved entries follow.
CNCCNS(=O)(=O)c1ccc(-c2c(Cl)cc(Nc3n[nH]c(N)n3)cc2C(F)(F)F)cc1 [Compound 213, hydrochloride] | condition met
Nc1ccc(-c2c(Cl)cc(Nc3n[nH]c(N)n3)cc2Cl)cc1 | condition not met
Nc1nc(Nc2cc(Cl)c(-c3ccc(Cl)c(Cl)c3)c(Cl)c2)n[nH]1 | condition not met

Prompt: Does the reported EC50 of the following compound sit strictly below 0.2 µM? NC(=O)c1ccc(-c2c(Cl)cc(Nc3n[nH]c(N)n3)cc2Cl)cc1
Completion: condition met

Prompt: Does the reported EC50 of the following compound sit strictly below 0.2 µM? CNC(=O)c1cccc(-c2c(F)cc(Nc3nc(N)n[nH]3)cc2C(F)(F)F)c1
Completion: condition not met

Prompt: Does the reported EC50 of the following compound sit strictly below 0.2 µM? CNCCOc1ccc(-c2c(Cl)cc(Nc3n[nH]c(N)n3)cc2Cl)cc1
Completion: condition met

Prompt: Does the reported EC50 of the following compound sit strictly below 0.2 µM? Nc1nc(Nc2cc(Cl)c(-c3ccc(S(=O)(=O)C4CC4)cc3)c(C(F)(F)F)c2)n[nH]1
Completion: condition met

Prompt: Does the reported EC50 of the following compound sit strictly below 0.2 µM? CC(C)S(=O)(=O)c1ccc(-c2c(Cl)cc(Nc3n[nH]c(N)n3)cc2Cl)cc1
Completion: condition met

Prompt: Does the reported EC50 of the following compound sit strictly below 0.2 µM? CC(C)(C)OC(=O)N1CC(COc2ccc(-c3c(Cl)cc(Nc4n[nH]c(N)n4)cc3Cl)cc2)C1
Completion: condition met

Prompt: Does the reported EC50 of the following compound sit strictly below 0.2 µM? CN(C(=O)OC(C)(C)C)C(C)(C)COc1ccc(-c2c(Cl)cc(Nc3n[nH]c(N)n3)cc2C(F)(F)F)cc1
Completion: condition met

Prompt: Does the reported EC50 of the following compound sit strictly below 0.2 µM? CN1CCCC(Oc2ccc(-c3c(Cl)cc(Nc4n[nH]c(N)n4)cc3C(F)(F)F)cc2)C1 (stereo not shown) [Compound 132, hydrochloride]
Completion: condition met

Prompt: Does the reported EC50 of the following compound sit strictly below 0.2 µM? Nc1nc(Nc2cc(Cl)c(-c3ccc(C(=O)O)cc3)c(C(F)(F)F)c2)n[nH]1 [Compound 202, 2,2,2-trifluoroacetate]
Completion: condition not met
